test system: M tuberculosis T3609, resistant to ofloxacin (OFX) and streptomycin; assay type: cell-based, Mycobacterium tuberculosis; set-up: unit not given beside the values; details: strain T3609
Result Type: MIC 1: MIC of the substance tested alone
Numbers only.

The following molecules have reported results that may help.
Molecule | Result Type | Numeric Value
CC1COc2c(N3CCN(C)CC3)c(F)cc3c(=O)c(C(=O)O)cn1c23 (centres unmarked) | MIC 1: MIC of the substance tested alone | 5.0
NNC(=O)c1ccncc1 | MIC 1: MIC of the substance tested alone | 0.5
COc1c(N2C[C@@H]3CCCN[C@@H]3C2)c(F)cc2c(=O)c(C(=O)O)cn(C3CC3)c12 | MIC 1: MIC of the substance tested alone | 1.25

Count: 4. Required value per item: MIC 1: MIC of the substance tested alone.
1. O=C(O)c1cn(C2CC2)c2cc(N3CCNCC3)c(F)cc2c1=O
2. C[C@@H]1CN(c2c(F)c(N)c3c(=O)c(C(=O)O)cn(C4CC4)c3c2F)C[C@H](C)N1
3. C[C@H]1COc2c(N3CCN(C)CC3)c(F)cc3c(=O)c(C(=O)O)cn1c23
4. COc1c(N2CCNC(C)C2)c(F)cc2c(=O)c(C(=O)O)cn(C3CC3)c12 (centres unmarked)

[5.00, 1.25, 2.50, 0.62]
